- STUDY_SYSTEM: bovine intestinal alkaline phosphatase (Bos taurus (Bovine), UniProt P19111)
- Sequence (P19111 20-506): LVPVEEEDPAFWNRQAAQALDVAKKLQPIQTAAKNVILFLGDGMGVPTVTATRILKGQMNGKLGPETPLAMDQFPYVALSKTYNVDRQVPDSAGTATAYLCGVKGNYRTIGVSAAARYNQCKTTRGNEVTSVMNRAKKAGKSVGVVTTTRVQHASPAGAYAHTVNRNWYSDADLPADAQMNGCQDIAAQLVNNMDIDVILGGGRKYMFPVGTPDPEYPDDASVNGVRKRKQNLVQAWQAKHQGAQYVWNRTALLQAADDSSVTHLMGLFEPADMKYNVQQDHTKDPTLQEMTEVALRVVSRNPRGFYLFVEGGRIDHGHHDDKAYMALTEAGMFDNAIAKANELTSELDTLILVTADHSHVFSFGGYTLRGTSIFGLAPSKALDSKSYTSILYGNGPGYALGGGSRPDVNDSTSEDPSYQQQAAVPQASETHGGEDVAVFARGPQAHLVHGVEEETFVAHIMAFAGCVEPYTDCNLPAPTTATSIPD
- TEST_SUMMARY: BiALP: conversion by bovine intestinal alkaline phosphatase
- Type: in vitro ADME
- EXPERIMENTAL_CONDITIONS: 2 μM substrate, 100 ng/mL iALP, Tris pH 7.8, 37° C., 60 minutes
MEASUREMENT_KIND: [Compound] (nM)
Use nM as the unit, but write only the number.

Ask: Would you mind telling me what [Compound] value was observed for COC(=O)N[C@H](C(=O)N[C@@H](Cc1ccc(C#Cc2cnc(N3CC4CCC(C3)N4C3COC3)nc2)cc1)[C@H](CN(Cc1c(F)cc(-c2ccn(C(F)F)n2)cc1F)NC(=O)[C@@H](NC(=O)OC)C(C)(C)C(F)(F)F)OC(=O)CC(C)(C)c1c(CC(=O)N[C@H]2C[C@@H](C(=O)O)C2)cc(C)cc1OP(=O)(O)O)C(C)(C)C(F)(F)F ?
Reply: 1966.3

Ask: Moving on to the next molecule: COC(=O)N[C@H](C(=O)N[C@@H](Cc1ccc(C#Cc2cnc(N3CC4CCC(C3)N4C3COC3)nc2)cc1)[C@H](CN(Cc1c(F)cc(-c2ccn(C(F)F)n2)cc1F)NC(=O)[C@@H](NC(=O)OC)C(C)(C)C(F)(F)F)OC(=O)OCOC(=O)CC(C)(C)c1c(CC(=O)N2CCCC2C(=O)O)cc(C)cc1OP(=O)(O)O)C(C)(C)C(F)(F)F (stereo partly drawn)
Reply: 2070.6

Ask: Try COC(=O)N[C@H](C(=O)N[C@@H](Cc1ccc(C#Cc2cnc(N3CC4CCC(C3)N4C3COC3)nc2)cc1)[C@H](CN(Cc1c(F)cc(-c2ccn(C(F)F)n2)cc1F)NC(=O)[C@@H](NC(=O)OC)C(C)(C)C(F)(F)F)OC(=O)CC(C)(C)c1c(CC(=O)N(C)CC(=O)O)cc(C)cc1OP(=O)(O)O)C(C)(C)C(F)(F)F next.
Reply: 1927.5

Ask: Please give the result for COC(=O)N[C@H](C(=O)N[C@@H](Cc1ccc(C#Cc2cnc(N3CC4CCC(C3)N4C3COC3)nc2)cc1)[C@H](CN(Cc1c(F)cc(-c2ccn(C(F)F)n2)cc1F)NC(=O)[C@@H](NC(=O)OC)C(C)(C)C(F)(F)F)OC(=O)CC(C)(C)c1c(CC(=O)N(CC(=O)O)CC(=O)O)cc(C)cc1OP(=O)(O)O)C(C)(C)C(F)(F)F too.
Reply: 1588.2

Ask: Request: COC(=O)N[C@H](C(=O)N[C@@H](Cc1ccc(C#Cc2cnc(N3CC4CCC(C3)N4C3COC3)nc2)cc1)[C@H](CN(Cc1c(F)cc(-c2ccn(C(F)F)n2)cc1F)NC(=O)[C@@H](NC(=O)OC)C(C)(C)C(F)(F)F)OC(=O)CC(C)(C)c1c(CC(=O)N([C@H](C)C(=O)O)S(=O)(=O)O)cc(C)cc1OP(=O)(O)O)C(C)(C)C(F)(F)F
Reply: 1435.5

Ask: Can you check COC(=O)N[C@H](C(=O)N[C@@H](Cc1ccc(C#Cc2cnc(N3CC4CCC(C3)N4C3COC3)nc2)cc1)[C@H](CN(Cc1c(F)cc(-c2ccn(C(F)F)n2)cc1F)NC(=O)[C@@H](NC(=O)OC)C(C)(C)C(F)(F)F)OC(=O)CC(C)(C)c1c(CC(=O)N([C@H](C)C(=O)O)S(=O)(=O)O)cccc1OP(=O)(O)O)C(C)(C)C(F)(F)F next?
Reply: 1310.3

Ask: What about COC(=O)N[C@H](C(=O)N[C@@H](Cc1ccc(C#Cc2cnc(N3CC4CCC(C3)N4C3COC3)nc2)cc1)[C@H](CN(Cc1c(F)cc(-c2ccn(C(F)F)n2)cc1F)NC(=O)[C@@H](NC(=O)OC)C(C)(C)C(F)(F)F)OC(=O)OCOC(=O)CC(C)(C)c1c(CC(=O)NCP(=O)(O)O)cc(C)cc1OP(=O)(O)O)C(C)(C)C(F)(F)F ?
Reply: 1578.5

Ask: Could you do the same for COC(=O)N[C@H](C(=O)N[C@@H](Cc1ccc(C#Cc2cnc(N3CC4CCC(C3)N4C3COC3)nc2)cc1)[C@H](CN(Cc1c(F)cc(-c2ccn(C(F)F)n2)cc1F)NC(=O)[C@@H](NC(=O)OC)C(C)(C)C(F)(F)F)OC(=O)OCOC(=O)CC(C)(C)c1c(CC(=O)NCC(=O)O)cc(C)cc1OP(=O)(O)O)C(C)(C)C(F)(F)F , please?
Reply: 1036.2

Ask: Can you check COC(=O)N[C@H](C(=O)N[C@@H](Cc1ccc(C#Cc2cnc(N3CC4CCC(C3)N4C3COC3)nc2)cc1)[C@H](CN(Cc1c(F)cc(-c2ccn(C(F)F)n2)cc1F)NC(=O)[C@@H](NC(=O)OC)C(C)(C)C(F)(F)F)OC(=O)OCOC(=O)CC(C)(C)c1c(C)cc(C(=O)O)cc1OP(=O)(O)O)C(C)(C)C(F)(F)F next?
Reply: 1359.6

Ask: Param item: COC(=O)N[C@H](C(=O)N[C@@H](Cc1ccc(C#Cc2cnc(N3CC4CCC(C3)N4C3COC3)nc2)cc1)[C@H](CN(Cc1c(F)cc(-c2ccn(C(F)F)n2)cc1F)NC(=O)[C@@H](NC(=O)OC)C(C)(C)C(F)(F)F)OC(=O)CC(C)(C)c1c(CC(=O)N[C@@H](CCC(=O)O)C(=O)O)cccc1OP(=O)(O)O)C(C)(C)C(F)(F)F
Reply: 1304.1

Ask: Same question for COC(=O)N[C@H](C(=O)N[C@@H](Cc1ccc(C#Cc2cnc(N3CC4CCC(C3)N4C3COC3)nc2)cc1)[C@H](CN(Cc1c(F)cc(-c2ccn(C(F)F)n2)cc1F)NC(=O)[C@@H](NC(=O)OC)C(C)(C)C(F)(F)F)OC(=O)CC(C)(C)c1c(CC(=O)NCC(=O)O)cc(C)cc1OP(=O)(O)O)C(C)(C)C(F)(F)F please.
Reply: 2044.2

Ask: Same again, this time with COC(=O)N[C@H](C(=O)N[C@@H](Cc1ccc(C#Cc2cnc(N3CC4CCC(C3)N4C3COC3)nc2)cc1)[C@H](CN(Cc1c(F)cc(-c2ccn(C(F)F)n2)cc1F)NC(=O)[C@@H](NC(=O)OC)C(C)(C)C(F)(F)F)OC(=O)CC(C)(C)c1c(CC(=O)N[C@@H](CC(C)C)C(=O)O)cc(C)cc1OP(=O)(O)O)C(C)(C)C(F)(F)F
Reply: 1928.8

---

Collected half-life at 2 μM values appear next to each entry.
- TEST_SUMMARY: Intestinal S9 Assay (dog GI S9)
- Format: in vitro ADME
- EXPERIMENTAL_CONDITIONS: dog, 1.0 mg/mL S9 protein, TRIS pH 7.4, read-out: Dog GI S9 T½
Please give a number only; it is taken to be in h.

compound=COC(=O)N[C@H](C(=O)N[C@@H](Cc1ccc(C#Cc2cnc(N3CC4CCC(C3)N4C3COC3)nc2)cc1)[C@H](CN(Cc1c(F)cc(-c2ccn(C(F)F)n2)cc1F)NC(=O)[C@@H](NC(=O)OC)C(C)(C)C(F)(F)F)OC(=O)CC(C)(C)c1c(CC(=O)N2C[C@@H](O)C[C@H]2C(=O)O)cc(C)cc1OP(=O)(O)O)C(C)(C)C(F)(F)F reported_measurement=6.89

Ask: Field request: half-life at 2 μM | item: COC(=O)N[C@H](C(=O)N[C@@H](Cc1ccc(C#Cc2cnc(N3CC4CCC(C3)N4C3COC3)nc2)cc1)[C@H](CN(Cc1c(F)cc(-c2ccn(C(F)F)n2)cc1F)NC(=O)[C@@H](NC(=O)OC)C(C)(C)C(F)(F)F)OC(=O)CC(C)(C)c1c(CC(=O)NC(CCP(=O)(O)O)C(=O)O)cc(C)cc1OP(=O)(O)O)C(C)(C)C(F)(F)F (stereo partly drawn)
Reply: 0.235

Ask: Next entry: COC(=O)N[C@H](C(=O)N[C@@H](Cc1ccc(C#Cc2cnc(N3CC4CCC(C3)N4C3COC3)nc2)cc1)[C@H](CN(Cc1c(F)cc(-c2ccn(C(F)F)n2)cc1F)NC(=O)[C@@H](NC(=O)OC)C(C)(C)C(F)(F)F)OC(=O)CC(C)(C)c1c(CC(=O)Nc2cc(C(=O)O)cc(S(C)(=O)=O)c2)cc(C)cc1OP(=O)(O)O)C(C)(C)C(F)(F)F
Reply: 2.23

Ask: How about COC(=O)N[C@H](C(=O)N[C@@H](Cc1ccc(C#Cc2cnc(N3CC4CCC(C3)N4C3COC3)nc2)cc1)[C@H](CN(Cc1c(F)cc(-c2ccn(C(F)F)n2)cc1F)NC(=O)[C@@H](NC(=O)OC)C(C)(C)C(F)(F)F)OC(=O)CC(C)(C)c1c(CC(=O)N2CC[C@@H](C(=O)O)C2)cc(C)cc1OP(=O)(O)O)C(C)(C)C(F)(F)F ?
Reply: 6.05
